Experiment: Cytotoxicity against human 2008/MRP1 cells at 0.5 uM by MTS assay
Assay type: cell-based
Conditions: 2008/mrp1, 0.5 µM
Property: Activity

Smiles string	Result
O=c1cc(-c2ccc(OCCOCCOCCOCCOCCOCCOCCOCCOc3ccc(-c4cc(=O)c5ccccc5o4)cc3)cc2)oc2ccccc12	Non-toxic
O=c1cc(-c2ccc(OCCOCCOCCOCCOCCOCCOc3ccc(-c4cc(=O)c5ccccc5o4)cc3)cc2)oc2ccccc12	Non-toxic
Cc1ccc2oc(-c3ccc(OCCOCCOCCOCCOCCOc4ccc(-c5cc(=O)c6cc(C)ccc6o5)cc4)cc3)cc(=O)c2c1	Non-toxic
Cc1c(-c2ccc(OCCOCCOCCOCCOCCOc3ccc(-c4oc5ccccc5c(=O)c4C)cc3)cc2)oc2ccccc2c1=O	Non-toxic

---

Biological target: ATP-binding cassette sub-family C member 2 (Homo sapiens)
Sequence (Q92887 whole entry): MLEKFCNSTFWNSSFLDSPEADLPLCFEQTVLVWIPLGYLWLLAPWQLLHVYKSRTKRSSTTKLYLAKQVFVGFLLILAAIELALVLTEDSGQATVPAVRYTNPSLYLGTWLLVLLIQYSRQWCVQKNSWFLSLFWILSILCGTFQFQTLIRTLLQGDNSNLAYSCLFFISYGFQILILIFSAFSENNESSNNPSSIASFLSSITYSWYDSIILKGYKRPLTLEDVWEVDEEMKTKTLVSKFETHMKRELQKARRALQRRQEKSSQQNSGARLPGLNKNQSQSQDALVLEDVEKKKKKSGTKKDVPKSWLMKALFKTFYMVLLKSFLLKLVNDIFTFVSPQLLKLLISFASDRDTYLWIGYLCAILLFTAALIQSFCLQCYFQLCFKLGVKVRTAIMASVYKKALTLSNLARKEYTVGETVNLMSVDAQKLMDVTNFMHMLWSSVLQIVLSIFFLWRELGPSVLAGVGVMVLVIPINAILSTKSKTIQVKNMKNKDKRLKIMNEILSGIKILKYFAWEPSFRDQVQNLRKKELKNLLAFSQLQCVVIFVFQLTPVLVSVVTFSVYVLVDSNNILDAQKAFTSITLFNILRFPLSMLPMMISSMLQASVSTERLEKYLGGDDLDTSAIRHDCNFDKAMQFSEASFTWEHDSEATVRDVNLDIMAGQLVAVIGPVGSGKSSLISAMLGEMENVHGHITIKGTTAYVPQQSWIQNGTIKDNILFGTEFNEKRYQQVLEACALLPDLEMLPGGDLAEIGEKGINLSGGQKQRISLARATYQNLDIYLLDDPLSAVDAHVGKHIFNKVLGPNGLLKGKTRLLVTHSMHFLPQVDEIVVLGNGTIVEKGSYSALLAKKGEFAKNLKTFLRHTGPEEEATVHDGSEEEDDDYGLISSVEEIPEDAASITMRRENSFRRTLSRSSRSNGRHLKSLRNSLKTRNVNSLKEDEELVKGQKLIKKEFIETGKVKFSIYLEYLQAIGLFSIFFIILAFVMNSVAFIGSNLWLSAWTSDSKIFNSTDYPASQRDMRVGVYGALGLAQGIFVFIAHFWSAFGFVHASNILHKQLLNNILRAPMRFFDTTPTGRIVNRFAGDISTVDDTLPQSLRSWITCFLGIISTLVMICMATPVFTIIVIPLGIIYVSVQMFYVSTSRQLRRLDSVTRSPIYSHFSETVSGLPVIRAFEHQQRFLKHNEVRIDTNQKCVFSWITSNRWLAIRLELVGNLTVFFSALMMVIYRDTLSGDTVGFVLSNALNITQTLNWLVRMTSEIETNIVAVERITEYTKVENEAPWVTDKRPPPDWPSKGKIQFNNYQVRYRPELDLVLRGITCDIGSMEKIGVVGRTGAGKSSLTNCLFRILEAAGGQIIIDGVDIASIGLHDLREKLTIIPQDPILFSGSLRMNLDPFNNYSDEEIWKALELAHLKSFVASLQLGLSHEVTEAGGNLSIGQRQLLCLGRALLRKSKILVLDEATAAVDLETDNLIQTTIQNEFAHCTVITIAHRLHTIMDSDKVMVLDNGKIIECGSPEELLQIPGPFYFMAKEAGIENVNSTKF
Property: IC50 (µM)
// note: answer is a bare numeric in µM

Prompt line: Quick check: IC50 of O=c1c(O)c(-c2cc(O)c(O)c(O)c2)oc2cc(O)cc(O)c12 ?
Response line: 22

Attribution: ChEMBL document CHEMBL1152445
